# System: CCRF-CEM leukemia
# TEST_DESCRIPTION: NCI-60 one-dose screen, 48 h (100 = growth as untreated, 0 = no growth, -100 = all killed)
# CONDITION_NOTES: 10 µM unless noted
# Method: Growth inhibition of the CCRF-CEM human tumor cell line is measured as a screen for anti-cancer activity. Cells are grown in 96 well plates and exposed to the test compound for 48 hours. Compounds are tested at a single concentration, which is 10^-5 M for most compounds. The reported endpoint is percent growth (GI% or GIPRCNT), where numbers from 0 - 100% represent growth inhibition, and numbers from -100% - 0 represent cell death. For example, a value of 40 represents 60% growth inhibition. […]
Compounds without any hit were thinned out: in the full panel of roughly 83,000, 20% have a hit.
Kindly supply the reported growth values for the records listed here.
Give bare numbers, in %.

// input: 3 compounds below; output: growth for each
1. C=C(C)[C@@H]1CC[C@]2(C(=O)N3CCN(C)CC3)CC[C@]3(C)[C@H](CC[C@@H]4[C@@]5(C)C/C(=C/c6ccncc6)C(=O)C(C)(C)[C@@H]5CC[C@]43C)[C@@H]12
2. COc1ccc(OC)c(CCn2cncc2-c2c[nH]c3ccccc23)c1
3. O=C1c2ccc3c4c(ccc(c24)C(=O)N1CCCNCc1ccccc1)C(=O)N(CCCNCc1ccccc1)C3=O

24.7
68.1
-30.5

Numbers sourced from PubChem BioAssay (NCI).
